tested on: PDE4 enzyme purified from U937 human monocytic cells; assay: PDE4 (U937 cell-derived) enzyme assay; type: biochemical
METRIC: IC50

smiles_structure=NC(=O)c1sc2nc(N)nc(-c3ccc(Cl)cc3)c2c1N result="0.12 µM"

====

test system: A375 cells; assay: Alamar Blue Viability Assay; format: cell-based; settings: 3 days
pIC50: −log10 of the molar value.
Form field: pIC50 (one value per entry).
METRIC: pIC50

smiles_structure=NC(=O)c1nc(-c2ccc(Cl)c(Cl)c2)c2c(N)c(C(N)=O)sc2n1 measured_on="A375 cells" metric=pIC50 result="4.52 to 4.70"
smiles_structure=CC(C)[C@H](CO)Nc1nc(-c2ccc(Cl)c(Cl)c2)c2c(N)c(C(N)=O)sc2n1 measured_on="A375 cells" metric=pIC50 result="4.70 to 5.00"

The measurements presented in this section are drawn from patent US20080004271A1.
